// cross-study collection: pIC50 for Amine oxidase [flavin-containing] A (Homo sapiens, UniProt P21397)
- target_under_test: Amine oxidase [flavin-containing] A (Homo sapiens, UniProt P21397)
- Sequence (P21397 whole entry): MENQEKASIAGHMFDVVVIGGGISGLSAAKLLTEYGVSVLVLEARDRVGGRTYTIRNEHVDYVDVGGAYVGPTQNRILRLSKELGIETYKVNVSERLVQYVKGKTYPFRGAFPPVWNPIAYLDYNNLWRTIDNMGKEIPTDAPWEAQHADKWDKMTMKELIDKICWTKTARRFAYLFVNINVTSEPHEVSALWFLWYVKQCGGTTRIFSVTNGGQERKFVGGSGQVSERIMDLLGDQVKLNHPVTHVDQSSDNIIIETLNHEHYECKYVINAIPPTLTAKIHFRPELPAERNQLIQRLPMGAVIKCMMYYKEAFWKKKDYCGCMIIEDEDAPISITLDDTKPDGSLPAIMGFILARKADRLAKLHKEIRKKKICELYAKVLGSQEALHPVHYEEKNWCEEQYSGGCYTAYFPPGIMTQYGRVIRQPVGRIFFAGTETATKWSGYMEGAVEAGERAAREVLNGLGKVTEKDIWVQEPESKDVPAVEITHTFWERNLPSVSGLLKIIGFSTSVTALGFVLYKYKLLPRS
pIC50: −log10 of the molar value.
Is pIC50 at least 5? Then Met. If not, Not met.

1) N=C(NCCCNCCCCCCCNCCCNC(=N)NC(=N)NCCC(c1ccccc1)c1ccccc1)NC(=N)NCCC(c1ccccc1)c1ccccc1 | Not met

Does pIC50 meet or surpass 5 for COc1ccc2cc(/C=N/Nc3nc(-c4cccc([N+](=O)[O-])c4)cs3)ccc2c1 ?
Met

Check the entry CC(C)=CCC/C(C)=C\Cc1c(O)cc(O)c2c(=O)c3cccc(O)c3oc12 : does pIC50 equal or exceed 5?
Not met

Item CCC/C(C)=N/Nc1nc(-c2cccc(OC)c2)cs1 with pIC50 of 5 or above?
Met

# check: pIC50 of COc1cccc(-c2csc(N/N=C/c3cccc4ccccc34)n2)c1 is greater than or equal to 5
Met
